test system: S. pneumoniae ATCC49619; test: MIC, microdilution broth method (NCCLS); format: cell-based; details: Streptococcus pneumoniae, Table 1, 6-Carbamoyl-3-Acyl Macrolide Derivatives, read-out: MIC Values, D: S. pneumoniae ATCC49619
measuredProperty: MIC (µg/mL)

| moleculeSmiles | targetSystem | MIC [µg/mL] |
| --- | --- | --- |
| CC[C@H]1OC(=O)[C@H](C)[C@@H](OC(=O)C(C)C)[C@H](C)[C@@H](O[C@@H]2O[C@H](C)C[C@H](N(C)C)[C@H]2OC(C)=O)[C@](C)(OC(=O)NC/C=C/c2ccc(-n3cccn3)cc2)C[C@@H](C)C(=O)[C@H](C)[C@H]2NC(=O)O[C@@]21C | S. pneumoniae ATCC49619 | 0.06 |
| CC[C@H]1OC(=O)[C@H](C)[C@@H](OC(=O)CCc2cccnc2)[C@H](C)[C@@H](O[C@@H]2O[C@H](C)C[C@H](N(C)C)[C@H]2O)[C@](C)(OC(=O)NC/C=C/c2ccc(-c3ncccn3)cc2)C[C@@H](C)C(=O)[C@H](C)[C@H]2NC(=O)O[C@@]21C | S. pneumoniae ATCC49619 | 0.06 |

P. CC[C@H]1OC(=O)[C@H](C)[C@@H](OC(=O)C(C)C)[C@H](C)[C@@H](O[C@@H]2O[C@H](C)C[C@H](N(C)C)[C@H]2O)[C@](C)(OC(=O)NC/C=C/c2ccc(-c3cccnn3)cc2)C[C@@H](C)C(=O)[C@H](C)[C@H]2NC(=O)O[C@@]21C
Q. CC[C@H]1OC(=O)[C@H](C)[C@@H](OC(=O)C(C)C)[C@H](C)[C@@H](O[C@@H]2O[C@H](C)C[C@H](N(C)C)[C@H]2O)[C@](C)(OC(=O)NC/C=C/C=C/c2cnc(C(C)C)nc2)C[C@@H](C)C(=O)[C@H](C)[C@H]2NC(=O)O[C@@]21C
Q: Which value of MIC is greater, the one for P or the one for Q ? Selection: enter the item's label.
Ans: Q

Just for reference, patent US6825172B2 is where these values come from.
